# Test system: L1210 leukemia ip in BDF1 mice, survival T/C
# Experiment description: NCI In Vivo Anticancer Drug Screen. Data for tumor model L1210 Leukemia (intraperitoneal) in B6D2F1 (BDF1) mice
# Test context: endpoint: mean survival time; dose: 12.5 mg/kg/injection; schedule: Q04DX003 (ip); vehicle: saline with Tween-80; higher = longer survival
Toxic doses and inconclusive results are not listed.
Readout name: T/C

Worked examples follow.
structure=O=C(Nc1nc(Cl)nc(Cl)n1)N1CCOCC1 value="95 % of control"
structure=[Cu+2].[NH-]c1ccccc1C(=O)O.[NH-]c1ccccc1C(=O)O value="97 % of control"
structure=C[S+](C)CCCNC(=O)c1csc(CCNC(=O)c2ccccc2)n1 value="103 % of control"
structure=N#CCc1cnc2ccccc2n1 value="94 % of control"

**Query** Return T/C (reported value) for this compound: `CC1(C)CN(Cc2ccccc2)C(C)(C)CN1`
**Result** 92 % of control
